- System: PC-3 prostate
- procedure-text: NCI-60 one-dose screen, 48 h (100 = growth as untreated, 0 = no growth, -100 = all killed)
- study-conditions: 10 µM unless noted
The panel holds about 83,000 compounds, 20% with a hit somewhere; the sample as a whole holds those more often.
Entries and their growth values follow.
measure-name: growth (%)

molecule: O=C(Nc1ccc(S(=O)(=O)F)cc1)Oc1ccccc1
tested-on: PC-3 prostate
measured-number: 93.4
//
molecule: C[C@@H]1O[C@@H](O[C@H]2CC[C@@]3(C)[C@H](CCC4[C@@H]3C(O)C[C@]3(C)[C@@H](c5ccc(=O)oc5)CC[C@]43O)C2)[C@H](O)[C@H](O)[C@H]1O (stereo not given in full)
tested-on: PC-3 prostate
measured-number: -33.3
//
molecule: CCOc1c(Cl)cc(CNC(C)C(O)c2ccccc2)cc1OC (stereo not given)
tested-on: PC-3 prostate
measured-number: 57.2
//
molecule: CC(=O)[O][Hg][c]1ccccc1
tested-on: PC-3 prostate
measured-number: -57.8
//
molecule: COc1ccc(/C=C\c2cc(OC)c(OC)c(OC)c2)cc1N/C=C\C(=O)c1c[nH]c2ccccc12
tested-on: PC-3 prostate
measured-number: 10.4

---

- System: NCI-H322M lung
- procedure-text: NCI-60 one-dose screen, 48 h
- study-conditions: 10 µM unless noted
Compounds without any hit were thinned out: in the full panel of roughly 83,000, 20% have a hit. Activity calls are given as the source filed them. Rule for the calls: active = growth percent below 10; inactive = the rest.
Labels: active, inactive

molecule: CC(C)(NC(=O)c1nn(CCCCCF)c2ccccc12)c1ccccc1
class-name: inactive
--
molecule: CC1(C)N=C(N)N=C(N)N1c1cccc(C(=O)Nc2cccc(S(=O)(=O)F)c2)c1
class-name: inactive
--
molecule: ClCCN(CCCl)c1nc(Cl)c(C2CC(c3ccccc3)=NN2c2ccccc2)s1 (stereo unspecified)
class-name: inactive
--
molecule: COc1cc(C2=NN(c3ccccc3)C(c3sc(N(CCCl)CCCl)nc3Cl)C2)cc(OC)c1OC (stereo unspecified)
class-name: inactive
--
molecule: Clc1ccc(SSC(Cl)(Cl)Cl)cc1
class-name: inactive
--
molecule: C[CH2][Pb]([CH2]C)([CH2]C)[O]C(=O)COC
class-name: active

---

- Test system: HL-60(TB) leukemia
- procedure-text: NCI-60 one-dose screen, 48 h (100 = growth as untreated, 0 = no growth, -100 = all killed)
- study-conditions: 10 µM unless noted
Compounds without any hit were thinned out: in the full panel of roughly 83,000, 20% have a hit.
Label key: fulfilled means growth under 50%; not fulfilled means growth of 50% or more.

compound: C=CCc1cc(Cl)cc2c(OC(C)=O)c(C(C)=O)c(-c3ccccc3)nc12
class-name: not fulfilled

compound: CS(=O)(=O)N(c1cc(-c2ccc3ncnc(Nc4ccc(F)c(Cl)c4)c3c2)cnc1Cl)S(C)(=O)=O
class-name: fulfilled

compound: CNC(=O)c1cc(Oc2ccc3nc(NC(=O)Nc4ccc(CN5CCOCC5)c(C(F)(F)F)c4)sc3c2)ccn1
class-name: fulfilled

compound: COc1cc(-c2nn(-c3cccc(NC(=O)c4ccc(N5CCOCC5)c(C(F)(F)F)c4)c3)cc2-c2ccncc2)ccc1Cl
class-name: fulfilled

compound: Cc1ccc(NC(=O)c2ccc(CN3CCN(C)CC3)cc2)cc1Nc1nc(-c2cccnc2)cs1
class-name: not fulfilled

compound: COc1ccc2c(c1)nc(N)c1c3cc(C)c(C)cc3cn21
class-name: not fulfilled

compound: O=S(=O)(NCl)c1ccccc1
class-name: not fulfilled

compound: O=C(O)CCCc1cnc2c3sccc3nc(SCc3c(Cl)cccc3Cl)n12
class-name: fulfilled

compound: CCCOC(=O)Nc1nc2ccc(SCC(C)C)cc2s1
class-name: fulfilled

compound: Cn1cc(Nc2nccc(-c3ccc(N4CCCC4)c(C#N)c3)n2)cn1
class-name: fulfilled

compound: S=C=Nc1ccc(N2CCOCC2)cc1
class-name: not fulfilled

compound: COc1cc(-c2nc3nc4sc(C)c(C)c4c(=O)n3[nH]2)cc(OC)c1OC
class-name: not fulfilled

compound: COc1ccc(-c2nc(SCC(=O)c3ccc(Br)cc3)[nH]c(=O)c2C#N)cc1
class-name: not fulfilled

compound: CCN(CC)S(=O)(=O)c1ccc(S(=O)(=O)N2CCC[C@@H](C(=O)N3CCN(c4nc(C(C)C)no4)CC3)C2)cc1
class-name: not fulfilled

compound: CC1(Cc2ccccc2)CC2=C(C(=O)O1)C(c1ccccc1)NC(=O)N2 (stereo unspecified)
class-name: fulfilled

compound: Cc1cccc(-c2cn3ccnc3c(-c3ccc4ncn(Cc5ccccc5)c4c3)n2)c1
class-name: not fulfilled

compound: c1ccc2cc(Cn3c[n+](Cc4ccc5ccccc5c4)c4ccccc43)ccc2c1
class-name: fulfilled

compound: c1ccc(CO[C@H]2CO[C@H]3[C@@H]2OC[C@@H]3Oc2ccc(Nc3ncnc4ccsc34)cc2)cc1
class-name: not fulfilled

compound: O=C(Nc1ccc(Cl)cc1)N1CCN(c2ccc3nncn3n2)CC1
class-name: fulfilled

compound: CCN(CC)CC(=O)Nc1c(C)cccc1C
class-name: not fulfilled

compound: CCOC(=O)c1c(-c2cc(OC)c(OC)c(OC)c2)csc1N
class-name: not fulfilled

compound: CCOC(=O)C(=O)C=P(c1ccccc1)(c1ccccc1)c1ccccc1
class-name: not fulfilled

compound: CC1(C)CC[C@]2(C(=O)N3CCOCC3)CC[C@]3(C)C(=CC[C@@H]4[C@@]5(C)CC[C@H](OC(=O)c6cccnc6)C(C)(C)[C@@H]5CC[C@]43C)[C@@H]2C1
class-name: fulfilled

compound: N=c1c(C(=O)OCc2ccccc2)ncc(CCl)n1O
class-name: not fulfilled

compound: CCOc1ccc(C2N(c3cc(OC)c(OC)c(OC)c3)C(=O)C2(F)F)cc1 (stereo unspecified)
class-name: fulfilled

compound: CCN(CCNc1ccc(C)c2sc3ccccc3c(=O)c12)CC(C)(C)O
class-name: fulfilled

compound: COc1ccc2nc3cc([N+](=O)[O-])ccc3c(NNc3ccccc3)c2c1
class-name: not fulfilled

compound: CCCNc1nc2ccccc2c2c1S(=O)(=O)c1ccc(Cl)cc1C2=O
class-name: fulfilled

compound: CC(=O)Oc1cccc(OC(C)=O)c1OC(C)=O
class-name: not fulfilled

compound: C=CC(=O)Nc1ccc2ncnc(Nc3cccc(NS(=O)(=O)CCC)c3Cl)c2c1
class-name: not fulfilled

compound: C#Cc1cccc(Nc2nc(Cl)nc3cc(NC(=O)CCl)ccc23)c1
class-name: fulfilled

compound: COc1ccc(/C=c2\c(=O)n(-c3ccccc3)c3nn4c(=O)c(=O)[nH]nc4n23)cc1
class-name: not fulfilled

compound: CN(CCC#N)c1ccc(/C=C(\C#N)c2cccc(C(F)(F)F)c2)cc1
class-name: not fulfilled

compound: CCC(c1ccc(OC)cc1)C(CC)c1ccc(O)c(CN2CCCCC2)c1 (stereo unspecified)
class-name: not fulfilled

compound: Cc1ccc(-c2csc(/N=C3\C(=O)Nc4ccccc43)n2)cc1
class-name: fulfilled

compound: CC(C)=C[C@@H]1c2c(c3ccccc3n(C)c2=O)O[C@H]2c3c(c4ccccc4n(C)c3=O)OC(C)(C)[C@@H]12
class-name: fulfilled

compound: CCOC(=O)CCC(=O)P(=O)(O)O
class-name: fulfilled

compound: Cc1nn(C)c2ncnc(Nc3ccccc3Br)c12
class-name: not fulfilled

compound: COc1ccc(/C=C/c2nc(Nc3ccc(S(=O)(=O)NC(C)=O)cc3)c3ccccc3n2)cc1
class-name: not fulfilled

compound: OCCNc1nccc(N2CCN(c3ccnc4cc(Cl)ccc34)CC2)n1
class-name: fulfilled
